assaySystem: T1, human PD-L2 (full-length, on cells) (human, UniProt Q9BQ51 20-273)
T1 construct: whole, on cells; CHO-K1 cells stably expressing full-length human PD-L2; also endogenous on NCI-H226 and transfected in Jurkat cells; also called hPD-L2; CHO-K1/hPD-L2
T1 sequence (looked up): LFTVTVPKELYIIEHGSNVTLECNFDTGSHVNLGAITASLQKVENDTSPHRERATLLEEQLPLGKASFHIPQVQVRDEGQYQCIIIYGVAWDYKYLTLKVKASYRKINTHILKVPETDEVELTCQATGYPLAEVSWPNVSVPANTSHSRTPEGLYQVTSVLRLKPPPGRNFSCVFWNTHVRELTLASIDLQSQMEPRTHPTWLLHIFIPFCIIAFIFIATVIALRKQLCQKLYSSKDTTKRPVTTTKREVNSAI
testDetails: FACS binding on cells expressing human PD-L2 (per the examples)

binder	binding result
2C4-E4 (antibody, V domains shown, Both formats under this entry) VH: QVQLVQSGAEVKKPGASVKVSCKASGYTFTGYVMHWVRQAPGQRLEWMGWINADNGITKYSQKFQGRVTITRDTSASTAYMELTNLRSEDTAVYYCARATRGFGEFYFDYWGQGNLVTVSS VL: DIQMTQSPSTLSASVGDRVTITCRASQTISSWLAWYQQKPGKAPNLLIYKASSLESGVPSRFSGSGSGTEFTLTISSLQPDDFATYYCQQYYSYWTFGQGTKVEIK	binds
2-19H2 (antibody, V domains shown, VH of 19B3-B3 M23K.M63L.HC with VL of 2C4-E4; kappa; also called 2-H192) VH: QVQLVQSGAEVKKPGASVKVSCKASGYTFTNYAIHWVRQAPGQRLEWMGWINTGLGKPKYSQLFQDRVTITRDTSASTASMELSGLRSDDTAVYYCARVGWELYFDYWGQGTLVTVSS VL: DIQMTQSPSTLSASVGDRVTITCRASQTISSWLAWYQQKPGKAPNLLIYKASSLESGVPSRFSGSGSGTEFTLTISSLQPDDFATYYCQQYYSYWTFGQGTKVEIK	binds
10D1-G1 N31Q.N92Q.LC (antibody, V domains shown, Optimized variant of 10D1-G1; also called 10D1-G1 N31Q.N920.LC) VH: QVQLQESGPGLVKPSGTLSLTCAVSGGSISSSYWWSWVRQPPGKGLEWIGEIFHIGSTNYNPSLRSRVTISVVKSKNQFSLNLNSVTAADTAVYFCARVSGGYGYFSGMDVWGQGTTVTVSS VL: DIQMTQSPSSLSASVGDRVTITCRASQGIRQDLGWYQQKPGKAPKRLIYGASSLQSGVPSRFSGSGSGTEFTLTISSLQPEDFATYYCLQHQSYPRTFGQGTKVEIK	binds

From: patent US20200369772A1
